Numbers sourced from paper PMC6479915.

SI (index selectivity) = IC50 (AChE)/IC50 (BChE) for assorted compounds
- TESTED_ON: BChE from equine serum (Equus caballus)
- Construct: BChE (from equine serum); purchased Sigma, St. Louis, MO, USA; host or cells: equine serum
- Sequence (P81908 whole entry): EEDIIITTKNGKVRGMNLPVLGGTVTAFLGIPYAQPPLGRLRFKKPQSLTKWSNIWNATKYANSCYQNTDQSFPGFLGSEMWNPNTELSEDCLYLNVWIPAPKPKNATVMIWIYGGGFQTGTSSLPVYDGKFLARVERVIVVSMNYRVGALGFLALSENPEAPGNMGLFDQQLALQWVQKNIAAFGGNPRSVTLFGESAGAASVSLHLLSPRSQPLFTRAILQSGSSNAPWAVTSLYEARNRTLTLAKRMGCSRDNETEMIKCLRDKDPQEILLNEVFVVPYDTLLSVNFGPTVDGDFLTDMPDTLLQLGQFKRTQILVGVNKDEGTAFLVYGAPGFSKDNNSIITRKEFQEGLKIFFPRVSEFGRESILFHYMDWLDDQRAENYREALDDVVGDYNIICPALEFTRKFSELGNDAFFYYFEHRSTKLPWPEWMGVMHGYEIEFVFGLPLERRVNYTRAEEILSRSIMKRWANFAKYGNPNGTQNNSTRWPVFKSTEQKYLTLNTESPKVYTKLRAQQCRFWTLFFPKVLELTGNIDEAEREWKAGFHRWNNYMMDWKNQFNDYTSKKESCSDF
- ASSAY_DETAILS: In vitro BChE inhibition, modified Ellman's method
- Type: biochemical
- ASSAY_SETUP: higher value = higher selectivity to BChE
// keep it numeric: no unit symbol after the value

Worked examples, 2 compounds total:
CC(C(=O)c1ccc(Cl)cc1)N(C)C(=O)OCc1ccccc1 (centres unmarked)    7.53
COC(=O)N(C)C(C)C(=O)c1ccc(C)cc1 (centres unmarked)    0.28

Ask: Sample CCC(C(=O)c1ccccc1)N(C)C(=O)OCc1ccccc1 (centres unmarked) — what was its SI (index selectivity) = IC50 (AChE)/IC50 (BChE)?
Result: 4.87

Ask: Please report the recorded SI (index selectivity) = IC50 (AChE)/IC50 (BChE) for CCC(C(=O)c1ccccc1)N(CC)C(=O)OCc1ccccc1 (centres unmarked) .
Result: 5.61

Ask: Data request, read-out SI (index selectivity) = IC50 (AChE)/IC50 (BChE), for COC(=O)N(C)C(C)C(=O)c1ccc(Cl)cc1 (centres unmarked)
Result: 2.35

Ask: // SI (index selectivity) = IC50 (AChE)/IC50 (BChE) lookup, key: CCN(C(=O)OC)C(C)C(=O)c1ccccc1 (centres unmarked)
Result: 1.08
